Recorded measurements of melting point, one per entry

These solved cases illustrate the format of a correct answer.
[[record]]
smiles_repr = "CC(C)c1cc(C(C)C)c(C(=O)Nc2ccc(C(=O)O)cc2)[nH]1"
assay_readout = "melting point"
reported_measurement = "225 to 226 °C"

[[record]]
smiles_repr = "CC(C)c1cc(C(=O)Nc2ccc(C(=O)O)s2)oc1C(C)C"
assay_readout = "melting point"
reported_measurement = "227 to 228.5 °C"

[[record]]
smiles_repr = "CC(C)c1cc(C(=O)Nc2ccc(C(=O)O)c(O)c2)sc1C(C)C"
assay_readout = "melting point"
reported_measurement = "129 to 130 °C"

[[record]]
smiles_repr = "CC(C)c1cc(/C=C/C(=O)Nc2ccc(C(=O)O)cc2)oc1C(C)C"
assay_readout = "melting point"
reported_measurement = "131 to 133 °C"

[[record]]
smiles_repr = "COc1cc(NC(=O)c2cc(C(C)C)c(C(C)C)o2)ccc1C(=O)O"
assay_readout = "melting point"
reported_measurement = "136 to 137 °C"

[[record]]
smiles_repr = "CC(C)c1cc(C(=O)Nc2ccc(C(=O)O)c(F)c2)oc1C(C)C"
assay_readout = "melting point"
reported_measurement = "151 to 152 °C"


Please fill in: melting point reported for CC(C)c1cc(C(=O)Nc2ccc(C(=O)O)o2)oc1C(C)C = 169 to 171 °C

Briefly, melting point measured for CC(C)c1cc(/C=C/C(=O)Nc2cccc(C(=O)O)c2)oc1C(C)C : 220.5 to 221.5 °C

The reported value for CC(C)c1cc(C(=O)Nc2ccc(C(=O)O)c(Cl)c2)sc1C(C)C in terms of melting point is 222 to 223 °C
